# Tested on: Vero E6 infected with SARS-CoV-2
# assay-comment: inhibition of SARS-CoV-2 cytopathic effect; higher = more antiviral protection, active = above 15
# condition-details: 10000 nM; 48 h
measurement-kind: inhibition of SARS-CoV-2 cytopathic effect (%)
Express it in %; write the number only.

Look over these answered cases.
1. O=C(O)CC[C@H]1CC[C@@](c2cc(F)ccc2F)(S(=O)(=O)c2ccc(Cl)cc2)CC1: -8.12
2. C#Cc1cncc([C@@H]2CCCN2C)c1: 0.92
3. S=P(N1CC1)(N1CC1)N1CC1: 2.21
4. CCc1ccc(C2=CC(C)(C)Sc3ccc(C#Cc4ccc(C(=O)O)cc4)cc32)cc1: 3.68
5. O=C(O)c1cn(C2CC2)c2cc(N3CCNCC3)c(F)cc2c1=O: -2.99

What does the record list as inhibition of SARS-CoV-2 cytopathic effect for NCCc1c[nH]c2ccc(O)cc12 ?
0.37

Can you look up the measured inhibition of SARS-CoV-2 cytopathic effect of CCOCc1cc(OC)c(-c2ccc(C[C@H](NC(=O)c3c(F)cccc3F)C(=O)O)cc2)c(OC)c1 for me?
-2.41
